target: cholera toxin (Vibrio cholerae serotype O1, UniProt P01556); experiment: biochemical; details: read-out: inhibition of binding of cholera toxin to ganglioside GD1b
Sequence (P01556 22-124 limits assumed): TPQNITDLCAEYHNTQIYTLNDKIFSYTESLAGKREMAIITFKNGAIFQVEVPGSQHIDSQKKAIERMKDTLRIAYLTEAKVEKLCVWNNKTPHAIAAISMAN
Reported inhibition at 1000 µg/mL values are given for each entry in this list.
ENDPOINT_LABEL: inhibition at 1000 µg/mL

CC(O)CC(S[C@@H]1O[C@H](CO)[C@H](O)[C@H](O)[C@H]1O)c1ccccc1 (some centres unmarked) [Example A3]
< 20%
CC(CC(C)S[C@@H]1O[C@H](CO)[C@H](O)[C@H](O)[C@H]1O)N[C@@H](CCCNC(=N)N)C(=O)O (some centres unmarked) [Example J8]
< 20%
CC(C)C[C@H](NC1CCCC(S[C@@H]2O[C@H](CO)[C@H](O)[C@H](O)[C@H]2O)C1)C(=O)O (some centres unmarked) [Example G10]
< 20%
CC(N)CC(S[C@@H]1O[C@H](CO)[C@H](O)[C@H](O)[C@H]1O)c1ccccc1 (some centres unmarked) [Example B3]
< 20%
CC1(C)CCC(N[C@@H](Cc2c[nH]cn2)C(=O)O)CC1S[C@@H]1O[C@H](CO)[C@H](O)[C@H](O)[C@H]1O (some centres unmarked) [Example H9]
< 20%
CC1CCC(NC2CC(S[C@@H]3O[C@H](CO)[C@H](O)[C@H](O)[C@H]3O)C(C)(C)C2)C1 (some centres unmarked) [Example B6Q]
≥ 20%
CC1(C)CCC(N[C@@H](Cc2c[nH]c3ccccc23)C(=O)O)CC1S[C@@H]1O[C@H](CO)[C@H](O)[C@H](O)[C@H]1O (some centres unmarked) [Example I9]
< 20%
O=C(O)c1ccccc1C(=O)NC1CCCCC(S[C@@H]2O[C@H](CO)[C@H](O)[C@H](O)[C@H]2O)C1 (some centres unmarked) [Example D5]
≥ 20%
CC(CC(S[C@@H]1O[C@H](CO)[C@H](O)[C@H](O)[C@H]1O)c1ccccc1)N[C@@H](CCCNC(=N)N)C(=O)O (some centres unmarked) [Example J3]
≥ 20%
CC1(C)CCC(NCCC(=O)O)CC1S[C@@H]1O[C@H](CO)[C@H](O)[C@H](O)[C@H]1O (some centres unmarked) [Example F9]
< 20%
CC(C)C[C@H](NC(C)CC(C)S[C@@H]1O[C@H](CO)[C@H](O)[C@H](O)[C@H]1O)C(=O)O (some centres unmarked) [Example G8]
< 20%
NC1C2CCC(C2)C1CS[C@@H]1O[C@H](CO)[C@H](O)[C@H](O)[C@H]1O (some centres unmarked) [Example B4]
< 20%
O=C(O)CNC1CCCC1S[C@@H]1O[C@H](CO)[C@H](O)[C@H](O)[C@H]1O (some centres unmarked) [Example E1]
≥ 20%
CC1(C)CC(N[C@@H](CCCNC(=N)N)C(=O)O)CC1S[C@@H]1O[C@H](CO)[C@H](O)[C@H](O)[C@H]1O (some centres unmarked) [Example J6]
< 20%

* * *

target: heat-labile enterotoxin from E. coli (Escherichia coli, UniProt P0CK94); type: binding; settings: at the concentration employed in the assay
Sequence (P0CK94 whole entry, looked up): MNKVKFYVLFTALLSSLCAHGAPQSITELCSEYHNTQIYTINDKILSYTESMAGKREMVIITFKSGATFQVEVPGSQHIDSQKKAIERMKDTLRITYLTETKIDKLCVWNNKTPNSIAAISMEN
ENDPOINT_LABEL: inhibition of binding of heat-labile enterotoxin to ganglioside GD1b

O=C(O)CCNC1CCCCC1S[C@@H]1O[C@H](CO)[C@H](O)[C@H](O)[C@H]1O (some centres unmarked)
at least 20%
OC[C@H]1O[C@@H](SC2CCC(O)C2)[C@H](O)[C@@H](O)[C@H]1O (some centres unmarked)
< 20%
NC1CCC(S[C@@H]2O[C@H](CO)[C@H](O)[C@H](O)[C@H]2O)C1 (some centres unmarked)
at least 20%
CC1(C)CCC(S[C@@H]2O[C@H](CO)[C@H](O)[C@H](O)[C@H]2O)CC1NCC(=O)O (some centres unmarked)
at least 20%
O=C(O)CCNC1CCCC(S[C@@H]2O[C@H](CO)[C@H](O)[C@H](O)[C@H]2O)C1 (some centres unmarked)
at least 20%
OC[C@H]1O[C@@H](SC2CCCCC2O)[C@H](O)[C@@H](O)[C@H]1O (some centres unmarked)
< 20%
NC1CCCCC1S[C@@H]1O[C@H](CO)[C@H](O)[C@H](O)[C@H]1O (some centres unmarked)
at least 20%
CC(C)C[C@H](NC1CCCCC1S[C@@H]1O[C@H](CO)[C@H](O)[C@H](O)[C@H]1O)C(=O)O (some centres unmarked)
< 20%
